Reference for the values: paper PMC8809517

assayedSystem: T1, GFP-9S library array, motif 4 ND N98G;D124V (synthetic construct, N98G;D124V)
T1 chain: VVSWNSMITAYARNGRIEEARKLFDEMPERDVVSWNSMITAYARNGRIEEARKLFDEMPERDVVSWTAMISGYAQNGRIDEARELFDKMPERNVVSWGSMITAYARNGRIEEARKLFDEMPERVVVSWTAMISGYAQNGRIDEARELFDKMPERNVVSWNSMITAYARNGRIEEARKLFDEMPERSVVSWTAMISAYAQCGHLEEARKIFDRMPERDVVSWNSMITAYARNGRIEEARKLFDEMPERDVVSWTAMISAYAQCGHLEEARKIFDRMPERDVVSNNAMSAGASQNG
measurementDescription: high-throughput RNA pulldown from lysate on Ni-NTA beads; HRP: 50 mM Tris pH 8, 150 mM NaCl, 1 mM beta-mercaptoethanol, 50 ug/ml BSA, 3 ug/ml yeast RNA, 0.5% heparin; ITC and FP: Tris pH 8, 200 mM KCl, 5% glycerol; MST: 50 mM Tris pH 8, 200 mM NaCl, 1 mM DTT, BSA, heparin, 0.05% Tween 20
measurementParameters: tags: N-terminal His-eGFP; label: 5' Cy5
Each entry below carries its reported pKd.
Quick note: pKd values are minus log10 of concentrations in mol/L.

{"binder": "AUUACACGUGA (ssRNA) [Cy5-rpoA]", "pKd": 6.93}

Please look at the following binder next.
Item: AUUAGACGUGA (ssRNA) [Cy5-rpoA-G] | pKd: 6.93
